Data provenance is the supplement of paper PMC6555819.

Test system: RARb homodimer (NR concentration 270 nM)
Assay: PBM binding z-score (relative to random genomic background probes); higher = stronger binding; sequences stand for … in GC…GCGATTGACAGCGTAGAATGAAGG
Would you mind telling me the reported PBM binding z-score of each entry?
Numbers only.

{"SEQ": "CCTCGGAGGACCGAAGGTCAGAGCTGTCCGCTTT", "STUDY_TARGET": "RARb homodimer (NR concentration 270 nM)", "METRIC": "PBM binding z-score", "ASSAY_VALUE": 2.65}
{"SEQ": "AGAATGAGGTTATACGTCGATCAGGGAAGAAAGT", "STUDY_TARGET": "RARb homodimer (NR concentration 270 nM)", "METRIC": "PBM binding z-score", "ASSAY_VALUE": 0.644}
{"SEQ": "ATATCTAGGTAACCAAGTTCAGTGAATGCCGAAC", "STUDY_TARGET": "RARb homodimer (NR concentration 270 nM)", "METRIC": "PBM binding z-score", "ASSAY_VALUE": 1.55}

Please give PBM binding z-score, item by item, for the list that follows.
1. CAAACTAGGTCACGTAAGGTCAAAGTCGAATGAC
2. TCTTGTACATCAACAGGAGGTTAAGAAAGATCGA
3. TCTTGTAGATCAGCAAGTTAAGAAAGCTGGCCAA
4. CCTACTGAGCCATCAGGTCATTGATATCAACGTT
5. AGTCACAGTTCAGGACGAGGTAACGTAAAGCACG
6. CGTGCAAGGTCAGCAGGTCAGTGAAAGCGACGTG

Result:
1: 5.56; 2: 0.799; 3: -0.5; 4: 2.7; 5: 1.66; 6: 4.76

State the recorded PBM binding z-score for every item in the following list.
1. TTACCAAGGTGCAGGTCGTTGATCCCTCTGTAGA
2. ACTAGCAGGCCAAGGGTCACTCACGATTAGTCCG
3. CCTAGCAGGCCAGGGTCAATCAAGCATTTCGCTT
4. CCTACTGGGCCAAAGGTCATTGAGTCCAATGCTC

Result:
1. 0.634
2. 3.79
3. 2.92
4. 4.88

Give PBM binding z-score for all sequences that follow.
1. CCTAGTTCGTCAGGAGGTCACACACCGGATATGA
2. ATCTCTAGGTAACCAAGTTGAGTGAATGCCGAAC

Result:
[4.54, 0.229]

Provide PBM binding z-score values for the following items, in order.
1. ACAGAAAGGTGAGTGAAGGTAACTCAGCTGGACG
2. TTACCAGGGTGAGCTGAGGTCGTTGATCCAACTC
3. TTACCAAGGTGAAGGTCGTTGACCCCTCTGTAGA
4. TCTGCTAGGTGAGTTGGTCAGCTAACGAGCTGCC
5. ATACCAAGGTGATCGTGAGGTCCTTGATACTAAC
6. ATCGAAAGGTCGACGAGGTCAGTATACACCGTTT
7. GATACAGGGTCAAGGCCAGAGAACGCGTATTGAT
8. TATTGTAGATCAATAGAGGTTAAGAAAGTGCGCT

Result:
1. 1.15
2. 1.24
3. 3.35
4. -0.359
5. 0.337
6. 4.63
7. 3.34
8. 1.44

# batch size: 2; output PBM binding z-score per entry
1. CCTAGCAGGACAGGGTCACTCAAGCATTTCGCTT
2. ATCTCTAGGTAAATTTCAGTGAAAGATCGATAGA

Result:
1. 2.77
2. -0.353

Go through the items and report each one's PBM binding z-score.
1. CCTAGCAGGCCAGGGTCACTCAGGCATTTCGCTT
2. ATCTCTAGGTAAAAGCTCAGTGAATCCCGAGGAT
3. TTACCAAGGTGCAAGGTCGTTGATGCACGCCTTG
4. TCATATAGGTAAAGGTGAAAATCGAACGATATGA
5. TCGAGTAGGTTAGTCGGGGCATTTAGCCAACATA

Result:
[2.73, -0.335, 1.21, 0.939, 0.426]

Go through the items and report each one's PBM binding z-score.
1. AGAACGAGGGCAGTGAGTTGATAGCACGGGTGGC
2. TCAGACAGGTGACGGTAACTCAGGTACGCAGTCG
3. CCTGACGGGTCAAGGTTATAGCACGGGTGGTACG

Result:
0.73
0.517
3.21

Give PBM binding z-score for each of the items listed below.
1. CCTACTGGGCCAAGGTCATCGATCAGTCAAAGCA
2. CAAACTAGATCACGAAAGGTCAAAGTCGAATGAC
3. GCAGACAGGTGAAACGCAGGTAACTCAGGGTGGC
4. TATACAGGTTCAAAGGCCAGAGTACGAATGTCGA
5. TCTCGGAGGACACGAAAGGCCAGAGCTCGACATC
6. CCTACTGGGCCAAGGTCATTGTTCAGTCAAAGCA
7. TAGCCTAGGTCATGCGGGCCAGTTTAGTGTCGGC

Result:
1: 3.75; 2: 4.84; 3: 0.13; 4: 1.82; 5: 1.53; 6: 3.27; 7: 3.03
